Test system: 786-0
measurement-protocol: NCI tumour cell line growth inhibition, 48 h
Active and inactive are the calls of the source. No stated cut-off is given here; in the data, active = GI50 up to about 1.1 µM and inactive = higher.
endpoint: GI50

Quickly give me recorded GI50 for "Cc1ccc(S(=O)(=O)N/N=C/C(=C/c2ccc(Cl)cc2)CC(/C=N/NS(=O)(=O)c2ccc(C)cc2)=C\c2ccc(Cl)cc2)cc1"
2.19 µM (inactive)

Quickly give me recorded GI50 for CP(=O)(CCSc1ccccc1)c1ccccc1 (stereo not given)
> 100 µM (inactive)

Quickly give me recorded GI50 for COc1cccc(C2c3cc4c(cc3OC(C)(O)C2C)OCO4)c1O (stereo not given)
4.44 µM (inactive)

Quickly give me recorded GI50 for O=C1c2c(O)ccc(O)c2C(=O)c2c(NCCNC(=O)C(O)C(O)C(O)C(O)CO)ccc(NCCNC(=O)C(O)C(O)C(O)C(O)CO)c21 (stereo not given)
< 0.01 µM (active)

Quickly give me recorded GI50 for "O=C1c2cccnc2C(=O)c2c1nc1ccccc1c2-c1ccc2c3c(nc4ccccc42)C(=O)c2cccnc2-c13"
0.417 µM (active)

Data credit: ChEMBL document CHEMBL1201862
